Entries and their Bliss excess
Tested on: HC-1 (Other Blood Carcinomas);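 note: after 72 h of two-drug dosing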
ASSAY OVERVIEW: Bliss excess, mean over the matrix (fraction); higher = more synergy
TEST READOUT: Bliss excess

>>> val("COc1nnc2ccc(N3CCC(c4ccc(OCCN5CCN(C)C(=O)[C@H]5C)cc4)CC3)nn12 [AZD5153] + Cc1c2c(nn1C)CSCc1cc(n(C)n1)CSc1cc(c3ccccc3c1)OCCCc1c(C(=O)O)n(C)c3c-2c(Cl)ccc13 [AZD5991] (first compound max 1 µM, 7x7, partner max 1 µM)")
0.0424
>>> val("C[C@@H](c1ccc2nccn2c1)n1nnc2ncc(-c3cnn(C)c3)nc21 [Savolitinib] + CN(CC[C@H](CSC1=CC=CC=C1)NC2=C(C=C(C=C2)S(=O)(=O)NC(=O)C3=CC=C(C=C3)N4CCC(CC4)[C@H](C5=CC=CC=C5C6=CC=C(C=C6)Cl)O)S(=O)(=O)C(F)(F)F)CCO [AZD4320] (first compound max 1 µM, 7x7, partner max 1 µM)")
-0.0254
>>> val("COc1cccc2c1C(=O)c1c(O)c3c(c(O)c1C2=O)C[C@@](O)(C(=O)CO)C[C@@H]3O[C@H]1C[C@H](N)[C@H](O)[C@H](C)O1 [Doxorubicin] + Cc1cc2ncnn2cc1Nc1ncc2c(n1)n(C1CCOCC1)c(=O)n2C [AZD7648] (first compound max 1 µM, 7x7, partner max 10 µM)")
0.0693
